# target.system: jack bean urease (Canavalia ensiformis, UniProt P07374)
# Sequence (P07374 whole entry, looked up): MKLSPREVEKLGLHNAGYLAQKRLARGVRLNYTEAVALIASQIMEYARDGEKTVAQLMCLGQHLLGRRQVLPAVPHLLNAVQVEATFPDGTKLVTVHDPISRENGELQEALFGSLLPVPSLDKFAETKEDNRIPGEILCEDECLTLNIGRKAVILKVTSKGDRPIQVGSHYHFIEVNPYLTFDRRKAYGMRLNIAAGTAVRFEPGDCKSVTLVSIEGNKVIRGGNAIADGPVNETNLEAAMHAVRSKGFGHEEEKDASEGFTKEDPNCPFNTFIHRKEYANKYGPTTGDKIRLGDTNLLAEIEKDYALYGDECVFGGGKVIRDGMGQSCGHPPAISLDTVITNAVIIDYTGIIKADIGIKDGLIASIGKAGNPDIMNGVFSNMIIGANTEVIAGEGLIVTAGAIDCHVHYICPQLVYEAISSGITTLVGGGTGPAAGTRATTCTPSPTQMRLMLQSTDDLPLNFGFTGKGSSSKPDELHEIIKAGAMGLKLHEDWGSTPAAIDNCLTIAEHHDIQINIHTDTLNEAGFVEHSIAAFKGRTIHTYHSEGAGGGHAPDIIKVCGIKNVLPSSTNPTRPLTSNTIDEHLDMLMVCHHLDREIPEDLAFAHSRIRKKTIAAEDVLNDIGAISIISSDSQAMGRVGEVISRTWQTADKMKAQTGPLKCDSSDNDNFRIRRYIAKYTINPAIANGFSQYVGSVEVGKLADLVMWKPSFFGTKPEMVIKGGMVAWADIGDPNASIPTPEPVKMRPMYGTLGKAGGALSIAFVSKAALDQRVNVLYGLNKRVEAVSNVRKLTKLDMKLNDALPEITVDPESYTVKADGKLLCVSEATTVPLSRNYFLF
# measurement.protocol: biochemical
Doc: threshold 50 µM (exclusive). Items with IC50 beneath it return Satisfied; others return Not satisfied.

Study these solved cases before continuing.
> print(dat)
                                   compound      class
1  CC1(C)CC(=O)C(C(c2ccccc2)c2c(O)[nH]c(=O)[nH]c2=O)=C(O)C1 (centres unmarked)  Satisfied
2  Cc1ccc(C(C2=C(O)CC(C)(C)CC2=O)c2c(O)[nH]c(=O)[nH]c2=O)cc1 (centres unmarked)  Satisfied

-- ask Could you please tell me whether IC50 recorded for `Cn1c(O)c(C(c2ccc(O)cc2)c2c(O)n(C)c(=O)n(C)c2=O)c(=O)n(C)c1=O` is less than 50 µM?
-- reply Not satisfied

-- ask Could you please tell me whether IC50 recorded for `COc1ccc(C(c2c(O)[nH]c(=O)[nH]c2=O)c2c(O)[nH]c(=O)[nH]c2=O)cc1` is less than 50 µM?
-- reply Satisfied

-- ask Could you please tell me whether IC50 recorded for `COc1ccc(C(C2=C(O)CC(C)(C)CC2=O)C2=C(O)CC(C)(C)CC2=O)cc1` is less than 50 µM?
-- reply Satisfied

###

# target.system: jack bean urease (Canavalia ensiformis)
# measurement.protocol: biochemical
# run.parameters: in vitro assay, authors' verbal grading
quantity.kind: urease inhibitory activity in words

Sample records with urease inhibitory activity in words:
> print(dat)
                                   compound          val
1  O=c1[nH]c(O)c(C(c2ccc(Cl)cc2)c2c(O)[nH]c(=O)[nH]c2=O)c(=O)[nH]1 [Compound 4j]       active
2  CC1(C)CC(=O)C(C(c2ccccc2)c2c(O)[nH]c(=O)[nH]c2=O)=C(O)C1 (stereo not shown) [Compound 5n]       active
3  Cc1ccc(C(c2c(O)[nH]c(=O)[nH]c2=O)c2c(O)[nH]c(=O)[nH]c2=O)cc1 [Compound 4i]  most active
4  Cn1c(O)c(C(c2ccc(C=O)cc2)c2c(O)[nH]c(=O)[nH]c2=O)c(=O)n(C)c1=O (stereo not shown) [Compound 5l]  most active
5  CC1(C)CC(=O)C(C(C2=C(O)CC(C)(C)CC2=O)c2ccccc2[N+](=O)[O-])=C(O)C1 [Compound 5i]   inactivity

Attention now shifts to the item below.
According to the records, this compound CC1(C)CC(=O)C(C(C2=C(O)CC(C)(C)CC2=O)c2ccc([N+](=O)[O-])cc2)=C(O)C1 [Compound 5f] displays urease inhibitory activity in words of inactivity

###

# target.system: jack bean urease (Canavalia ensiformis, UniProt P07374)
# measurement.protocol: biochemical
# run.parameters: in vitro assay, authors' verbal grading
quantity.kind: urease inhibitory activity in words

> print(dat)
                                   molecule         val
1  CC1(C)CC(=O)C(C(C2=C(O)CC(C)(C)CC2=O)c2ccc3ccccc3c2)=C(O)C1 [Compound 5s]  inactivity
2  Cn1c(O)c(C(C2=C(O)CC(C)(C)CC2=O)c2ccccc2[N+](=O)[O-])c(=O)n(C)c1=O (stereo not drawn) [Compound 4s]  inactivity

###

# target.system: jack bean urease (Canavalia ensiformis)
# measurement.protocol: biochemical
quantity.kind: pIC50
API: returns pIC50 as number; meaning -log10 of concentration in mol/L.

Sample records with pIC50:
> print(dat)
                                   compound   val
1  Cc1cccc(C(c2c(O)n(C)c(=O)n(C)c2=O)c2c(O)n(C)c(=O)n(C)c2=O)c1  4.46
2  Cn1c(O)c(C(C2=C(O)CC(C)(C)CC2=O)c2ccc(Cl)cc2Cl)c(=O)n(C)c1=O (stereo not drawn)  4.23

Attention now shifts to the item below.
According to the records, this compound Cn1c(O)c(C(C2=C(O)CC(C)(C)CC2=O)c2ccccc2[N+](=O)[O-])c(=O)n(C)c1=O (stereo not drawn) displays pIC50 of 3.96

###

# target.system: UniProt:P07374
# measurement.protocol: biochemical
Doc: threshold 40 µM (exclusive). Items with IC50 beneath it return 1; others return 0.

> print(dat)
                                   compound   target.system  class
1  Cn1c(O)c(C(C2=C(O)CC(C)(C)CC2=O)c2cccc(Br)c2)c(=O)n(C)c1=O (stereo not shown) [Compound 4r]  UniProt:P07374      1

API: the following record is the query input.
-- ask Could you please tell me whether IC50 recorded for Cn1c(O)c(C(C2=C(O)CC(C)(C)CC2=O)c2ccc(O)cc2)c(=O)n(C)c1=O (stereo not shown) [Compound 4v] is less than 40 µM?
-- reply 0

###

# target.system: jack bean urease (Canavalia ensiformis, UniProt P07374)
# measurement.protocol: biochemical
quantity.kind: IC50 (µM)
Output spec: scalar in µM, unitless text.

Sample records with IC50:
> print(dat)
                                 cpd.smiles  val
1  CC1(C)CC(=O)C(C(C2=C(O)CC(C)(C)CC2=O)c2ccc3ccccc3c2)=C(O)C1  123
2  CC1(C)CC(=O)C(C(C2=C(O)CC(C)(C)CC2=O)c2ccccc2[N+](=O)[O-])=C(O)C1  210

According to the records, this compound `Cc1ccc(C(c2c(O)n(C)c(=O)n(C)c2=O)c2c(O)n(C)c(=O)n(C)c2=O)cc1` displays IC50 of 28.5

###

# target.system: jack bean urease (Canavalia ensiformis)
# measurement.protocol: biochemical
# Procedure: Reaction mixture comprising of 25μL of enzyme (jack bean urease) (1 unit/well) solution and 55 μL of phosphate buffers (4 mM) containing 100 mM urea were incubated with 5 μL of test compounds dissolved in methanol (0.5 mM concentration) at 30 °C for 15 min in 96-well plates. Urease activity was determined by measuring ammonia production using the indophenol method as described by Weather burn. […] Percentage inhibitions were calculated from the formula 100 − (ODtestwell/ODcontrol) × 100. […]
Entries and their IC50
Output spec: scalar in µM, unitless text.

Sample records with IC50:
> print(dat)
                                   compound   val
1  Cn1c(O)c(C(c2ccc([N+](=O)[O-])cc2)c2c(O)n(C)c(=O)n(C)c2=O)c(=O)n(C)c1=O  54.2
2  Cn1c(O)c(C(c2ccc(C=O)cc2)c2c(O)[nH]c(=O)[nH]c2=O)c(=O)n(C)c1=O (centres unmarked)  17.2
3  CN(C)c1ccc(C(C2=C(O)CC(C)(C)CC2=O)c2c(O)n(C)c(=O)n(C)c2=O)cc1 (centres unmarked)   142
4  CC1(C)CC(=O)C(C(C2=C(O)CC(C)(C)CC2=O)c2cccc([N+](=O)[O-])c2)=C(O)C1    49
5  COc1ccc(C(C2=C(O)CC(C)(C)CC2=O)c2c(O)n(C)c(=O)n(C)c2=O)cc1 (centres unmarked)    83
6  CC1(C)CC(=O)C(C(c2ccc(Cl)cc2)c2c(O)[nH]c(=O)[nH]c2=O)=C(O)C1 (centres unmarked)  65.9

According to the records, this compound Cn1c(O)c(C(C2=C(O)CC(C)(C)CC2=O)c2ccc(Br)cc2)c(=O)n(C)c1=O (centres unmarked) displays IC50 of 24.6

According to the records, this compound `Cn1c(O)c(C(c2ccc3ccccc3c2)c2c(O)n(C)c(=O)n(C)c2=O)c(=O)n(C)c1=O` displays IC50 of 40.3

According to the records, this compound `COc1ccc(C(c2c(O)n(C)c(=O)n(C)c2=O)c2c(O)n(C)c(=O)n(C)c2=O)cc1` displays IC50 of 31.6

According to the records, this compound Cn1c(O)c(C(C2=C(O)CC(C)(C)CC2=O)c2ccc(C=O)cc2)c(=O)n(C)c1=O (centres unmarked) displays IC50 of 38.5

According to the records, this compound Cc1ccc(C(C2=C(O)CC(C)(C)CC2=O)c2c(O)n(C)c(=O)n(C)c2=O)cc1 (centres unmarked) displays IC50 of 41.2

According to the records, this compound `Cn1c(O)c(C(c2ccc(C=O)cc2)c2c(O)n(C)c(=O)n(C)c2=O)c(=O)n(C)c1=O` displays IC50 of 39.3

According to the records, this compound Cn1c(O)c(C(C2=C(O)CC(C)(C)CC2=O)c2ccc(Cl)cc2)c(=O)n(C)c1=O (centres unmarked) displays IC50 of 39.7

###

# target.system: jack bean urease (Canavalia ensiformis)
# measurement.protocol: biochemical
quantity.kind: IC50 (µM)
Output spec: scalar in µM, unitless text.

> print(dat)
                                   compound   val
1  O=c1[nH]c(O)c(C(c2ccc3ccccc3c2)c2c(O)[nH]c(=O)[nH]c2=O)c(=O)[nH]1  22.7
2  CC1(C)CC(=O)C(C(c2ccc(C=O)cc2)c2c(O)[nH]c(=O)[nH]c2=O)=C(O)C1 (stereo not shown)  41.6
3  CC1(C)CC(=O)C(C(c2ccc3ccccc3c2)c2c(O)[nH]c(=O)[nH]c2=O)=C(O)C1 (stereo not shown)  82.8
4  CC1(C)CC(=O)C(C(C2=C(O)CC(C)(C)CC2=O)c2c(Cl)cccc2Cl)=C(O)C1   171
5  CC1(C)CC(=O)C(C(C2=C(O)CC(C)(C)CC2=O)c2ccc(C=O)cc2)=C(O)C1  72.6
6  Cn1c(O)c(C(c2cccc(Br)c2)c2c(O)n(C)c(=O)n(C)c2=O)c(=O)n(C)c1=O  27.5

According to the records, this compound `CC1(C)CC(=O)C(C(C2=C(O)CC(C)(C)CC2=O)c2ccc(Cl)cc2)=C(O)C1` displays IC50 of 29.7

According to the records, this compound `Cc1ccc(C(c2c(O)[nH]c(=O)[nH]c2=O)c2c(O)[nH]c(=O)[nH]c2=O)cc1` displays IC50 of 17.6

According to the records, this compound Cn1c(O)c(C(C2=C(O)CC(C)(C)CC2=O)c2ccc3ccccc3c2)c(=O)n(C)c1=O (stereo not shown) displays IC50 of 39.8

According to the records, this compound CC1(C)CC(=O)C(C(c2ccc(Br)cc2)c2c(O)[nH]c(=O)[nH]c2=O)=C(O)C1 (stereo not shown) displays IC50 of 34.6

According to the records, this compound Cn1c(O)c(C(C2=C(O)CC(C)(C)CC2=O)c2c(Cl)cccc2Cl)c(=O)n(C)c1=O (stereo not shown) displays IC50 of 83.4

According to the records, this compound `CC1(C)CC(=O)C(C(C2=C(O)CC(C)(C)CC2=O)c2ccc(O)cc2)=C(O)C1` displays IC50 of 43.8
